- measurement-description: clinical
- condition-summary: human, in vivo, Average Concentration
- Source text: Each day, a fresh patch was placed on a new skin site (abdomen, flank, upper arm, shoulder, thigh, hip) in a rotating order. The silicone transdermal patches were made in accordance with the teachings of U.S. Patent Application Publication No. US 2003/0026830 at paragraphs 38-42, U.S. Patent Application Publication No. US 2003/0027793 at paragraphs 37-41 and U.S. Pat. No. 6,884,434, columns 5-6, Example 2 and comprised the following layers and components: […]
endpoint-name: concentration at 27 day (ng/mL)
Numbers only here, please. The scale is ng/mL.

Dear colleague, I am looking for the recorded concentration at 27 day of the following compound: CCCN(CCc1cccs1)[C@H]1CCc2c(O)cccc2C1 [rotigotine]
0.882

* * *

- measurement-description: Multiple dose trial with rotating patch application sites in early-stage Parkinson's disease: rotigotine pharmacokinetics (Example 4)
- condition-summary: human, in vivo, 18 mg/day, rotigotine plasma concentration Mean, Thigh; Days 27 & 30 Combined; 23.5 H
endpoint-name: concentration at […] (ng/mL)
A number alone suffices; assume ng/mL.

What measured concentration at […] goes with CCCN(CCc1cccs1)[C@H]1CCc2c(O)cccc2C1 ?
0.735

* * *

- measurement-description: Multiple dose trial with rotating patch application sites in early-stage Parkinson's disease: rotigotine pharmacokinetics (Example 4)
- condition-summary: human, in vivo, 18 mg/day, rotigotine plasma concentrations, Geo. Mean, Application Site = Flank; Days 27 & 30 Combined; 23.5 H
- Text: Each day, a fresh patch was placed on a new skin site (abdomen, flank, upper arm, shoulder, thigh, hip) in a rotating order. The silicone transdermal patches were made in accordance with the teachings of U.S. Patent Application Publication No. US 2003/0026830 at paragraphs 38-42, U.S. Patent Application Publication No. US 2003/0027793 at paragraphs 37-41 and U.S. Pat. No. 6,884,434, columns 5-6, Example 2 and comprised the following layers and components: […]
endpoint-name: concentration at […] (ng/mL)
Numbers only; they are read as ng/mL.

So what's the measured concentration at […] for this one? CCCN(CCc1cccs1)[C@H]1CCc2c(O)cccc2C1
0.81

* * *

- measurement-description: clinical
- condition-summary: human, in vivo, rotigotine plasma concentration Geo. Mean
endpoint-name: concentration at 6 h (ng/mL)
Note: unit ng/mL is implicit; provide only the numeric part.

Could you tell me which concentration at 6 h is on file for CCCN(CCc1cccs1)[C@H]1CCc2c(O)cccc2C1 [rotigotine] ?
0.837

* * *

- measurement-description: Multiple dose trial with rotating patch application sites in early-stage Parkinson's disease: rotigotine pharmacokinetics (Example 4)
- condition-summary: human, in vivo, 18 mg/day, rotigotine plasma concentration Mean, Thigh; Day 30; 23.5 H
endpoint-name: concentration at […] (ng/mL)
Use ng/mL as the unit, but write only the number.

Record request: concentration at […] value, item CCCN(CCc1cccs1)[C@H]1CCc2c(O)cccc2C1 [rotigotine]
0.784

* * *

- measurement-description: Multiple dose trial with rotating patch application sites in early-stage Parkinson's disease: rotigotine pharmacokinetics (Example 4)
- condition-summary: human, in vivo, 18 mg/day, rotigotine plasma concentration Geo. Mean, Shoulder, Day 30, 23.5 H
endpoint-name: concentration at […] (ng/mL)
Record the value in ng/mL, omitting the unit from your answer.

Suppose we examine the compound CCCN(CCc1cccs1)[C@H]1CCc2c(O)cccc2C1 ; what concentration at […] value has been reported?
0.851

* * *

- measurement-description: clinical
- condition-summary: human, in vivo, rotigotine plasma concentration Geo. Mean
endpoint-name: concentration at 16 h

Entry CCCN(CCc1cccs1)[C@H]1CCc2c(O)cccc2C1 : reported concentration at 16 h = ?
1.15 ng/mL

* * *

- measurement-description: Multiple dose trial with rotating patch application sites in early-stage Parkinson's disease: rotigotine pharmacokinetics (Example 4)
- condition-summary: human, in vivo, 18 mg/day, rotigotine plasma concentration Geo. Mean, Upper Arm; Day 30; 23.5 H
endpoint-name: concentration at […] (ng/mL)
# number only, unit ng/mL dropped from output

concentration at […] for CCCN(CCc1cccs1)[C@H]1CCc2c(O)cccc2C1 [rotigotine] ?
0.833

* * *

- measurement-description: Multiple dose trial with rotating patch application sites in early-stage Parkinson's disease: rotigotine pharmacokinetics (Example 4)
- condition-summary: human, in vivo, 18 mg/day, rotigotine plasma concentrations, Median, Application Site = Abdomen; Days 27 & 30 Combined; 23.5 H
endpoint-name: concentration at […] (ng/mL)
The answer is to be given in ng/mL; state only the numeric part.

I'd like to know its concentration at […]. The compound in question is CCCN(CCc1cccs1)[C@H]1CCc2c(O)cccc2C1 [rotigotine]
0.677

* * *

- measurement-description: Multiple dose trial with rotating patch application sites in early-stage Parkinson's disease: rotigotine pharmacokinetics (Example 4)
- condition-summary: human, in vivo, 18 mg/day, rotigotine plasma concentration Max, Thigh; Day 30; 23.5 H
endpoint-name: concentration at […]

Quick one: concentration at […] for CCCN(CCc1cccs1)[C@H]1CCc2c(O)cccc2C1 ?
1.59 ng/mL

* * *

- measurement-description: Multiple dose trial with rotating patch application sites in early-stage Parkinson's disease: rotigotine pharmacokinetics (Example 4)
- condition-summary: human, in vivo, 18 mg/day, rotigotine plasma concentrations, Mean, Application Site = Abdomen; Day 27; 23.5 H
endpoint-name: concentration at […]
Please make sure the unit comes right after the number.

Look at this compound and give its reported concentration at […]. CCCN(CCc1cccs1)[C@H]1CCc2c(O)cccc2C1
0.929 ng/mL

* * *

- measurement-description: clinical
- condition-summary: human, in vivo, rotigotine plasma concentrations, Geo. Mean
endpoint-name: concentration at 16 h
Report as: number unit

Which concentration at 16 h value is on record for CCCN(CCc1cccs1)[C@H]1CCc2c(O)cccc2C1 ?
1 ng/mL

* * *

- measurement-description: clinical
- condition-summary: human, in vivo, rotigotine plasma concentration Mean
endpoint-name: concentration at 6 h

What does the record list as concentration at 6 h for CCCN(CCc1cccs1)[C@H]1CCc2c(O)cccc2C1 [rotigotine] ?
0.911 ng/mL

* * *

- measurement-description: Multiple dose trial with rotating patch application sites in early-stage Parkinson's disease: rotigotine pharmacokinetics (Example 4)
- condition-summary: human, in vivo, 18 mg/day, rotigotine plasma concentration Mean, Hip, Day 27, 23.5 H
endpoint-name: concentration at […] (ng/mL)
Answer in ng/mL, number only, no unit symbol.

Recorded concentration at […] for CCCN(CCc1cccs1)[C@H]1CCc2c(O)cccc2C1 , please?
0.96

* * *

- measurement-description: clinical
- condition-summary: human, in vivo, rotigotine plasma concentrations, Median
endpoint-name: concentration at 16 h (ng/mL)
Give just the numeric value; ng/mL need not be written.

Look at this compound and give its reported concentration at 16 h. CCCN(CCc1cccs1)[C@H]1CCc2c(O)cccc2C1
0.904

* * *

- measurement-description: clinical
- condition-summary: human, in vivo, rotigotine plasma concentrations, Median
endpoint-name: concentration at 20 h

Quick one: concentration at 20 h of CCCN(CCc1cccs1)[C@H]1CCc2c(O)cccc2C1 ?
0.962 ng/mL

* * *

- measurement-description: clinical
- condition-summary: human, in vivo, rotigotine plasma concentrations, Geo. Mean
endpoint-name: concentration at 18 h
Provide a numeric answer, followed by its unit.

Record request: concentration at 18 h value, item CCCN(CCc1cccs1)[C@H]1CCc2c(O)cccc2C1
1.01 ng/mL

* * *

- measurement-description: clinical
- condition-summary: human, in vivo, rotigotine plasma concentrations, Mean
endpoint-name: concentration at 16 h (ng/mL)
Express your answer in ng/mL, writing the number without its unit.

// concentration at 16 h lookup, key: CCCN(CCc1cccs1)[C@H]1CCc2c(O)cccc2C1
1.07

* * *

- measurement-description: Multiple dose trial with rotating patch application sites in early-stage Parkinson's disease: rotigotine pharmacokinetics (Example 4)
- condition-summary: human, in vivo, 18 mg/day, Average Concentration, Day 30; site UA (upper arm); Median
endpoint-name: concentration at 30 day (ng/mL)
Provide the reading as a plain figure in ng/mL.

// lookup concentration at 30 day for CCCN(CCc1cccs1)[C@H]1CCc2c(O)cccc2C1 [rotigotine]
0.895

* * *

- measurement-description: Multiple dose trial with rotating patch application sites in early-stage Parkinson's disease: rotigotine pharmacokinetics (Example 4)
- condition-summary: human, in vivo, 18 mg/day, rotigotine plasma concentration Median, Upper Arm; Days 27 & 30 Combined; 23.5 H
- From the text: Each day, a fresh patch was placed on a new skin site (abdomen, flank, upper arm, shoulder, thigh, hip) in a rotating order. The silicone transdermal patches were made in accordance with the teachings of U.S. Patent Application Publication No. US 2003/0026830 at paragraphs 38-42, U.S. Patent Application Publication No. US 2003/0027793 at paragraphs 37-41 and U.S. Pat. No. 6,884,434, columns 5-6, Example 2 and comprised the following layers and components: […]
endpoint-name: concentration at […] (ng/mL)
Give the quantity in ng/mL, number only.

Which concentration at […] value belongs to CCCN(CCc1cccs1)[C@H]1CCc2c(O)cccc2C1 [rotigotine] ?
0.899
